System: TE10
MEASUREMENT NOTES: relative cell viability vs DMSO, compound + 0.2 uM CuET (fraction); higher = less cytotoxic
ASSAY CONTEXT: 2 µM; co-treatment: CuET (bis(diethyldithiocarbamate)copper) 0.2 uM; 48 h
Over roughly 2,000 compounds, “relative cell viability vs DMSO, compound + 0.2 uM CuET” has its median near 1; the lowest 2% begin near 0.25. The sample holds the lowest values, similar compounds and a random draw of the others, so the mix is not that of the screen.
Each entry below lists one item and its recorded relative cell viability value.
ASSAY READOUT: relative cell viability

In [3]: df
Out[3]:
                                   compound  reported_measurement
0  C=CCn1c(=O)c2cnc(Nc3ccc(N4CCN(C)CC4)cc3)nc2n1-c1cccc(C(C)(C)O)n1                 0.559
1  CCOC(=O)C1=C(C)NC(C)=C(C(=O)OCC)C1c1ccccc1/C=C/C(=O)OC(C)(C)C [Lacidipine]                 0.785
2  Cc1cc(N2CCOCC2)cc2[nH]c(-c3c(NCC(O)c4cccc(Cl)c4)cc[nH]c3=O)nc12 (centres undefined)                 0.799
3  C=CC(=O)Nc1cccc(Sc2nc(Nc3ccc(N4CCN(C)CC4)cc3)ncc2Cl)c1                 0.846

###

Entries and their relative cell viability
Tested on: TE10
MEASUREMENT NOTES: relative cell viability vs DMSO, compound + 0.2 uM CuET (fraction); TE10 is an esophageal squamous carcinoma line; higher = less cytotoxic
ASSAY CONTEXT: 2 µM; co-treatment: CuET (bis(diethyldithiocarbamate)copper) 0.2 uM; 48 h
Where a name gives a salt, the structure may show the parent alone. The full ranking holds about 2,000 compounds; the median of “relative cell viability vs DMSO, compound + 0.2 uM CuET” is about 1, and the lowest 2% start at about 0.25. What follows is part of a selection rich in the lowest values, with near analogues and random picks from the rest.
ASSAY READOUT: relative cell viability

COMPOUND	REPORTED MEASUREMENT
CN1CC[C@@H](c2c(O)cc(O)c3c(=O)cc(-c4ccccc4Cl)oc23)[C@@H]1CO	0.7
COc1cc(/C=C/C(=O)CC(=O)/C=C/c2ccc(O)c(OC)c2)ccc1O	0.656
O=C(/C=C/c1ccc2ccccc2n1)c1ccncc1	0.186
Cn1cc(-c2ccc3c(c2)CCN3C(=O)Cc2cccc(C(F)(F)F)c2)c2c(N)ncnc21	0.897
CN(CCOc1ccc(CC2SC(=O)NC2=O)cc1)c1ccccn1 (configuration not stated) [Rosiglitazone maleate]	1.12
c1ccc(Cn2c(-c3ccc(OCC(C4CCNCC4)n4c(-c5ccccc5)nc5ccccc54)cc3)nc3ccccc32)cc1 (configuration not stated)	0.98
CNC(=O)c1c(F)cccc1Nc1nc(Nc2cc3c(cc2OC)CCN3C(=O)CN(C)C)nc2[nH]ccc12	1.06
CNCc1ccc(-c2[nH]c3cc(F)cc4c3c2CCNC4=O)cc1	1.3
COc1cc(/C=C/C(=O)O)ccc1O	1.21
CCCCc1nc2cc(/C=C/C(=O)NO)ccc2n1CCN(CC)CC [Pracinostat (SB939)]	0.243
CN(C)C(=S)NN=C(c1ccccn1)c1ccccn1	0.943
Cc1c(C(=O)Nc2ccc(N3C[C@@H](C)O[C@@H](C)C3)nc2)cccc1-c1ccc(OC(F)(F)F)cc1	0.714
O=C(O)c1ccccc1	1.1
Cc1[nH]c2ccccc2c1CCNCc1ccc(/C=C/C(=O)NO)cc1	0.151
CN(NC(=O)CC(=O)NN(C)C(=S)c1ccccc1)C(=S)c1ccccc1 [Elesclomol (STA-4783)]	0.0573
CN(C)Cc1ccc(S(=O)(=O)n2ccc(/C=C/C(=O)NO)c2)cc1	0.848
CC1=CC(=O)c2ccccc2C1=O	0.671
COc1ccc(Cn2ccc3ccc(C(=O)NO)cc32)cc1	0.685
CC(C)c1cc2c(N3CCN(C4=NCC(C)(C)S4)CC3)ncnc2s1	0.972
O=C(/C=C/n1cnc(-c2cc(C(F)(F)F)cc(C(F)(F)F)c2)n1)N1CC(F)(F)C1	0.355
Cn1c(=O)cc(N2CCC[C@@H](N)C2)n(Cc2cc(F)ccc2C#N)c1=O	1.17
CCOc1nc2cccc(C(=O)O)c2n1Cc1ccc(-c2ccccc2-c2nnn[nH]2)cc1	1.06
O=C(NNc1ccccc1)c1ccncc1	1.06
CCN1C(=CC(C)=O)Sc2ccc(OC)cc21	1.11
COc1cc(-c2ncn(/C=C\C(=O)OC(C)C)n2)cc(C(F)(F)F)c1	0.25
C=CCc1ccc(O)c(-c2cc(CC=C)ccc2O)c1	1.02
COc1ccc(-c2ccc3ncc4c(c3c2)n(-c2ccc(N3CCNCC3)c(C(F)(F)F)c2)c(=O)n4C)cn1	0.104
Cc1ccccc1C(=O)Nc1ccc(C(=O)N2CCCC(O)c3cc(Cl)ccc32)c(C)c1 (configuration not stated)	1.05
COc1ccc(/C=C/C(=O)C2(C(=O)/C=C/c3ccc(OC)c(OC)c3)CCCCC2)cc1OC	0.238
NC(=O)C1CCCc2c1[nH]c1ccc(Cl)cc21 (configuration not stated) [EX 527 (Selisistat)]	1.15
Nc1ccc(-c2ccc3ncc4ccc(=O)n(-c5cccc(C(F)(F)F)c5)c4c3c2)cn1	0.569
CC1=NN(c2ccc(C(=O)O)cc2)C(=O)C1=Cc1ccc(-c2cc(C)c(C)cc2[N+](=O)[O-])o1	0.872
O=C1c2c(O)cccc2C([C@@H]2O[C@H](CO)[C@@H](O)[C@H](O)[C@H]2O)c2cc(CO)cc(O)c21 (some centres not stated)	1.1
CCC(=O)O[C@]1(C(=O)SCF)[C@H](C)C[C@H]2[C@@H]3C[C@H](F)C4=CC(=O)C=C[C@]4(C)[C@@]3(F)[C@@H](O)C[C@@]21C [Fluticasone propionate]	1.02
CCOC(=O)C1=C(N)Oc2ccc(Cl)cc2C1C(C#N)C(=O)OCC (configuration not stated)	0.663
Cc1c(C(=O)NN2CCCCC2)nn(-c2ccc(Cl)cc2Cl)c1-c1ccc(Cl)cc1	0.716
OCc1ccc(-c2ccc(-c3ccc(CO)s3)o2)s1	0.225

Values from the supplement of paper PMC10670038
